Catalogue of Relative Binding ((IC50 of CNTF)/(IC50 of tested protein)) readings, one per entry.
Target: T1, CNTFRα-myc (soluble extracellular domain of the CNTFRα receptor) (UniProt P26992 23-342)
T1 construct: extracellular domain; Captured on plates or protein A-Sepharose through the anti-myc antibody 9E10; also called CNTF receptor α; soluble CNTFRα receptor
T1 sequence (looked up): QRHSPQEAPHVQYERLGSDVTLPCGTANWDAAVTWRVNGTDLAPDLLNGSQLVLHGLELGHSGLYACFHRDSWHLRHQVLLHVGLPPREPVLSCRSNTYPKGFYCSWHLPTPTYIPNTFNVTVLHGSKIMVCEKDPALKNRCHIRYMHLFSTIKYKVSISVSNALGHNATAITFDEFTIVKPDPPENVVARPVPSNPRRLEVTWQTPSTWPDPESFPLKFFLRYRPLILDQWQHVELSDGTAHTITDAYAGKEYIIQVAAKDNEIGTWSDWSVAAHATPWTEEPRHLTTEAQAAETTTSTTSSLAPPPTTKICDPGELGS
Experiment: solid-phase competition with biotinylated CNTF or biotinylated MUT-DH for immobilised CNTFRα-myc, soluble gp130 present
Method: The ability of CNTF variants to compete with biotinylated CNTF ([…]) for binding to the extracellular domain of the CNTFRα receptor was determined in a solid-phase binding assay, in the presence of soluble gp130, as described in preceding publications (19). […] The alkaline phosphatase activity was determined at 37° C. using 1 mg/ml p-nitrophenyl phosphate in 1 M of diethanolamine-HCl, pH 9.8, and absorbancy at 405 nm was measured after 40–60 minutes using a suitable reader. […]
Dear colleague, please return just the value in ratio, with no unit written.

{"binder": "Phe152Ala/MUT-DH (ligand, human, UniProt P26441 1-200, looked up, also called AKDH-CNTF; AK/DH) MAFTEHSPLTPHRRDLCSRSIWLARKIRSDLTALTESYVKHQGLNKNINLDSADGMPVASTDQWSELTEAERLQENLQAYRTFHVLLARLLEDQQVHFTPTEGDFHQAIHTLLLQVAAFAYQIEELMILLEYKIPRNEADGMPINVGDGGLAEKKLWGLKVLQELDHWTVRSIHDLRFISSHQTGIPARGSHYIANNKKM", "reported": 32}
{"binder": "human ciliary neurotrophic factor (hCNTF) (ligand, UniProt P26441 1-200, looked up, also called wild-type CNTF; wt) MAFTEHSPLTPHRRDLCSRSIWLARKIRSDLTALTESYVKHQGLNKNINLDSADGMPVASTDQWSELTEAERLQENLQAYRTFHVLLARLLEDQQVHFTPTEGDFHQAIHTLLLQVAAFAYQIEELMILLEYKIPRNEADGMPINVGDGGLFEKKLWGLKVLQELSQWTVRSIHDLRFISSHQTGIPARGSHYIANNKKM", "reported": 1}

Next:
input: Quick one: Relative Binding ((IC50 of CNTF)/(IC50 of tested protein)) for Phe152Ala/Lys155Ala/MUT-DH (ligand, human, UniProt P26441 1-200, looked up, also called AADH-CNTF; AA/DH) MAFTEHSPLTPHRRDLCSRSIWLARKIRSDLTALTESYVKHQGLNKNINLDSADGMPVASTDQWSELTEAERLQENLQAYRTFHVLLARLLEDQQVHFTPTEGDFHQAIHTLLLQVAAFAYQIEELMILLEYKIPRNEADGMPINVGDGGLAEKALWGLKVLQELDHWTVRSIHDLRFISSHQTGIPARGSHYIANNKKM ?
output: 51

Where do the numbers come from? From patent US6756357.
